Target: EVASIN4
Test: -; previously described evasin

# binder, Kd
records = [
    ("CCL22_HUMAN (ligand) GPYGANMEDSVCCRDYVRYRLPLRVVKHFYWTSDSCPRPGVVLLTFRDKEICADPRVPWVKMILNKLSQ", "0.43 nM"),
    ("CCL25_HUMAN (ligand) QGVFEDCCLAYHYPIGWAVLRRAWTYRIQEVSGSCNLPAAIFYLPKRHRKVCGNPKSREVQRAMKLLDARNKVFAKLHHNTQTFQAGPHAVKKLSSGNSKLSSSKFSNPISSSKRNVSLLISANSGL", "69.6 nM"),
]

Sourced from patent US20220175942A1
